- TARGET_OR_SYSTEM: TAR hairpin RNA
- METHOD: Fluorescence anisotropy competition with Rev-N-rhodamine probe, binding to TAR hairpin RNA
- Set-up: species or system HIV
- CONDITION_SUMMARY: fluorescence anisotropy, 20° C., pH 7.4; read-out: Dissociation constant, TAR
Define the label as TRUE when Kd is strictly less than 40 nM and as FALSE in all remaining cases.

LKKLWKLLKKLLKLAG [2p, tryptophan scanned second generation peptide]    TRUE
WKKLLKLLKKLLKLAG [2n, tryptophan scanned second generation peptide]    TRUE
LKKLLKLLKKLLKWAG [2u, tryptophan scanned second generation peptide]    TRUE
LKKLLKLWKKLLKLAG [2r, tryptophan scanned second generation peptide]    FALSE
LKALLKLLKKLLKLKG [1c, alanine scanned first generation peptide]    FALSE
LAKLLKLLKKLLKLKG [1b, alanine scanned first generation peptide]    TRUE
LKKLLKLLAKLLKLKG [1e, alanine scanned first generation peptide]    FALSE

====

- TARGET_OR_SYSTEM: TAR hairpin RNA
- METHOD: Fluorescence anisotropy competition with Rev-N-rhodamine probe, binding to TAR hairpin RNA
- Design: species or system HIV
- CONDITION_SUMMARY: fluorescence anisotropy, 20° C., pH 7.4; read-out: Dissociation constant, TAR
pKd: −log10 of the molar value.
# pKd per entry
MEASURED_ENDPOINT: pKd

LKKLLKLLKKLWKLAG [2t, tryptophan scanned second generation peptide]    8.00
LKKWLKLLKKLLKLAG [2o, tryptophan scanned second generation peptide]    7.47
LKKLLKWLKKLLKLAG [2q, tryptophan scanned second generation peptide]    7.68
LKKLLKLLKALLKLKG [1f, alanine scanned first generation peptide]    7.60
LKKLLKLLKKWLKLAG [2s, tryptophan scanned second generation peptide]    7.37
LKKLLALLKKLLKLKG [peptide 1d, alanine scanned first generation peptide]    6.82
LKKLLKLLKKLLKLKG [1a, original amphiphilic 16-mer peptide]    7.18
LKKLLKLLKKLLKLAG [1h, alanine scanned first generation peptide]    7.20

====

- Test system: IRES domain IV hairpin
- METHOD: Fluorescence anisotropy competition with Rev-N-rhodamine probe, binding to IRES hairpin
- Parameters: species or system HCV
- CONDITION_SUMMARY: compared with the original peptide
MEASURED_ENDPOINT: binding strength to IRES, in words

LKKLLALLKKLLKLKG [peptide 1d, alanine scanned first generation peptide]    reduced binding strength
WKKLLKLLKKLLKLAG [2n, tryptophan scanned second generation peptide]    significantly increased
LKKLLKWLKKLLKLAG [2q, tryptophan scanned second generation peptide]    significantly increased
LKKLLKLLKKLLALKG [1g, alanine scanned first generation peptide]    reduced binding strength
LKKLLKLLKKLLKWAG [2u, tryptophan scanned second generation peptide]    significantly increased
LKKLLKLLAKLLKLKG [1e, alanine scanned first generation peptide]    reduced binding strength

====

- Test system: IRES domain IV hairpin
- METHOD: Fluorescence anisotropy competition with Rev-N-rhodamine probe, binding to IRES hairpin
- Parameters: species or system HCV
- CONDITION_SUMMARY: (mean Kd to other hairpin RNA)/(Kd to one hairpin RNA); IRES
The threshold is inclusive: differentiation coefficient (IRES) of exactly 2 counts as yes (1); values below receive no (0).

LKKLLKLLKKLLKLAG [1h, alanine scanned first generation peptide]    no (0)
LKKLLKLWKKLLKLAG [2r, tryptophan scanned second generation peptide]    no (0)
LKKLLKLLAKLLKLKG [1e, alanine scanned first generation peptide]    no (0)
LKKLLKLLKALLKLKG [1f, alanine scanned first generation peptide]    no (0)
WKKLLKLLKKLLKLAG [2n, tryptophan scanned second generation peptide]    yes (1)
LKKLLKLLKKLLALKG [1g, alanine scanned first generation peptide]    no (0)
LKKLLALLKKLLKLKG [peptide 1d, alanine scanned first generation peptide]    no (0)
LKKLLKLLKKLLKWAG [2u, tryptophan scanned second generation peptide]    yes (1)
LKKWLKLLKKLLKLAG [2o, tryptophan scanned second generation peptide]    yes (1)
LKKLWKLLKKLLKLAG [2p, tryptophan scanned second generation peptide]    yes (1)
LKKLLKLLKKLWKLAG [2t, tryptophan scanned second generation peptide]    yes (1)
LKKLLKLLKKLLKLKG [1a, original amphiphilic 16-mer peptide]    no (0)
LKKLLKLLKKWLKLAG [2s, tryptophan scanned second generation peptide]    yes (1)
LKKLLKWLKKLLKLAG [2q, tryptophan scanned second generation peptide]    yes (1)
LKALLKLLKKLLKLKG [1c, alanine scanned first generation peptide]    no (0)
